Quick reference: growth of the listed items.
System: Ruminococcus gnavus DSM 108212
TEST SUMMARY: growth (OD595) fold change vs plate DMSO controls (fold change (ratio)); higher = more growth
MEASUREMENT SETUP: incubation time: 27 h, anaerobic, 37 °C
Structures can show the parent of a compound that is named as a salt.

The following compounds have reported results that may help.
COc1cc(C)nc(-n2nc(C)cc2OC)n1 [Epirizole] (20 µM)	0.89
COc1ccc2[nH]c([S+]([O-])Cc3ncc(C)c(OC)c3C)nc2n1 (centres undefined) [Tenatoprazole] (20 µM)	1.14
COC(=O)[C@H](Cc1ccccc1)NC(=O)[C@@H](N)CC(=O)O [Aspartame] (50 µM)	1.01
Cc1ccc2c(Cl)cc(Cl)c(O)c2n1 [Chlorquinaldol] (20 µM)	0.448
CN(C)CCn1nnnc1SCC1=C(C(=O)O)N2C(=O)[C@@H](NC(=O)Cc3csc(N)n3)[C@H]2SC1 [Cefotiam hydrochloride] (20 µM)	0.248

Problem: Item C=C1CC[C@H](O)C/C1=C/C=C1\CCC[C@]2(C)[C@@H]([C@H](C)CCCC(C)C)CC[C@@H]12 [Cholecalciferol] (20 µM) with Ruminococcus gnavus DSM 108212 - growth?
Result: 1.05

Problem: Item CCOC(=O)[N-]c1c[n+](N2CCOCC2)no1 [Molsidomine] (20 µM) with Ruminococcus gnavus DSM 108212 - growth?
Result: 0.196

Problem: Item CCC[C@@H]1C[C@@H](C(=O)N[C@@H]([C@H]2O[C@H](SC)[C@H](OP(=O)(O)O)[C@@H](O)[C@H]2O)[C@H](C)Cl)N(C)C1 [Clindamycin Phosphate] (20 µM) with Ruminococcus gnavus DSM 108212 - growth?
Result: 0.709

Problem: Item COC(=O)Nc1nc2cc(C(=O)c3ccc(F)cc3)ccc2[nH]1 [Flubendazol] (20 µM) with Ruminococcus gnavus DSM 108212 - growth?
Result: 1.04

Problem: Item C[C@]12CCC(=O)C=C1CC[C@@H]1[C@@H]2[C@@H](O)C[C@@]2(C)[C@H]1CC[C@]2(O)C(=O)CO [Hydrocortisone] (20 µM) with Ruminococcus gnavus DSM 108212 - growth?
Result: 1.03

Problem: Item CC(C)(CO)[C@@H](O)C(=O)NCCCC(=O)O [Hopantenate calcium] (20 µM) with Ruminococcus gnavus DSM 108212 - growth?
Result: 1.05

Problem: Item COc1ccc2cc([C@@H](C)C(=O)O)ccc2c1 [(R) Naproxen sodium salt] (20 µM) with Ruminococcus gnavus DSM 108212 - growth?
Result: 0.811

====

System: Escherichia coli IAI1
TEST SUMMARY: fold change of Cadaverine concentration vs plate DMSO controls (fold change (ratio)); higher = more amine produced, active = hit call of the paper (significant change in both replicates, either direction);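 for the amine columns active = adjusted P below 0.05 in both replicates with a change the same way and a mean fold change under 0.8 or over 1.25; inactive = the rest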
MEASUREMENT SETUP: incubation time: 27 h, anaerobic, 37 °C
Where a name gives a salt, the structure may show the parent alone.
Thanks in advance; please answer with one of these: active, inactive

These recorded examples may help you get a feel for the data.
N=C(N)N/N=C/c1c(Cl)cccc1Cl [Guanabenz acetate] (20 µM)	inactive
CO[C@H]1/C=C/O[C@@]2(C)Oc3c(C)c(O)c4c(O)c(c5c(nc6cc(C)ccn65)c4c3C2=O)NC(=O)/C(C)=C\C=C\[C@H](C)[C@H](O)[C@@H](C)[C@@H](O)[C@@H](C)[C@H](OC(C)=O)[C@@H]1C [Rifaximin] (20 µM)	active
O=C(NCCCN1CCOCC1)c1ccc(Cl)cc1 [Eprobemide] (20 µM)	inactive
CCCC(=O)Nc1ncnc2c1ncn2[C@@H]1O[C@@H]2COP(=O)(O)O[C@H]2[C@H]1OC(=O)CCC [Bucladesine sodium salt] (20 µM)	inactive
CCCCC1C(=O)N(c2ccccc2)N(c2ccc(O)cc2)C1=O (stereo not drawn) [Oxyphenbutazone] (20 µM)	inactive
c1ccc(CNc2ncnc3nc[nH]c23)cc1 [Aminopurine, 6-benzyl] (20 µM)	inactive
COc1c(O)cc2c(c1O)[C@@H]1O[C@H](CO)[C@@H](O)[C@H](O)[C@H]1OC2=O [Bergenin] (20 µM)	inactive

Problem: Fill in: this test's call for CN(C)C(=O)Nc1ccc(Cl)c(Cl)c1 (20 µM) is ___
Result: inactive

====

Quick reference: fold change of Cadaverine concentration of the listed items.
Tested on: Escherichia coli IAI1
TEST SUMMARY: fold change of Cadaverine concentration vs plate DMSO controls (fold change (ratio)); higher = more amine produced, active = hit call of the paper (significant change in both replicates, either direction)
MEASUREMENT SETUP: incubation time: 27 h, anaerobic, 37 °C
Counter-ions that a name gives are not always drawn.
Hey, just send me the number, nothing else.

The following compounds have reported results that may help.
CO[C@@]1(NC(=O)Cc2cccs2)C(=O)N2C(C(=O)O)=C(COC(N)=O)CS[C@@H]21 [Cefoxitin sodium salt] (20 µM)	0.623
CC[N+](C)(C)Cc1ccccc1Br [Bretylium tosylate] (20 µM)	0.937

Problem: // query fold change of Cadaverine concentration value for entry CCCC(CCC)C(=O)O[C@H]1C[C@H]2CC[C@@H](C1)[N+]2(C)C [Anisotropine Methylbromide] (20 µM)
Result: 0.948

Problem: // query fold change of Cadaverine concentration value for entry C=C1/C(=C\C=C2/CCC[C@]3(C)[C@@H]([C@H](C)/C=C/[C@@H](O)C4CC4)CC[C@@H]23)C[C@@H](O)C[C@@H]1O [Calcipotriene] (20 µM)
Result: 0.969

Problem: // query fold change of Cadaverine concentration value for entry OC[C@H]1OC(O)[C@H](O)[C@@H](O)[C@@H]1O (some centres not stated) [Glucose/Dextrose] (50 µM)
Result: 1.11

Problem: // query fold change of Cadaverine concentration value for entry CC1=C(/C=C/C(C)=C/C=C/C(C)=C\C(=O)O)C(C)(C)CCC1 [Isotretinoin] (20 µM)
Result: 0.97

Problem: // query fold change of Cadaverine concentration value for entry C[C@H](CCC(=O)O)[C@H]1CC[C@H]2[C@@H]3[C@@H](O)C[C@@H]4C[C@H](O)CC[C@]4(C)[C@H]3CC[C@]12C [Urosiol] (20 µM)
Result: 0.954

====

Test system: Klebsiella aerogenes DSM 30053
TEST SUMMARY: growth (OD595) fold change vs plate DMSO controls (fold change (ratio)); higher = more growth
MEASUREMENT SETUP: incubation time: 27 h, anaerobic, 37 °C
Quick reference: growth of the listed items.
Hey, just send me the number, nothing else.

NCCCC(O)(P(=O)(O)O)P(=O)(O)O [Alendronate sodium] (20 µM)	1.1
CC1=C(C(=O)O)N2C(=O)[C@@H](NC(=O)[C@H](N)C3=CCC=CC3)[C@H]2SC1 [Cephradine monohydrate] (20 µM)	1.02
CN1CCc2c(c3ccccc3n2Cc2ccccc2)C1 [Mebhydroline 1,5-naphtalenedisulfonate] (20 µM)	1.04
Cc1cn([C@H]2C=C[C@@H](CO)O2)c(=O)[nH]c1=O [Stavudine] (20 µM)	0.99
O=S(=O)(O)NC1CCCCC1 [Cyclamic acid] (50 µM)	0.991
CCCCC(C)(O)C/C=C/[C@H]1[C@H](O)CC(=O)[C@@H]1CCCCCCC(=O)OC (mixture of isomers) [Misoprostol] (20 µM)	1.03

Problem: // query growth value for entry CCCNC(=O)NS(=O)(=O)c1ccc(Cl)cc1 [Chlorpropamide] (20 µM)
Result: 0.983

Problem: // query growth value for entry Oc1ccc(OCc2ccccc2)cc1 [Monobenzone] (20 µM)
Result: 1.11

====

System: Klebsiella aerogenes DSM 30053
TEST SUMMARY: growth (OD595) fold change vs plate DMSO controls (fold change (ratio)); higher = more growth
MEASUREMENT SETUP: incubation time: 27 h, anaerobic, 37 °C
Where a name gives a salt, the structure may show the parent alone.
ASSAY METRIC: growth
Hey, just send me the number, nothing else.

O=c1[nH]c(=O)n([C@H]2C[C@H](O)[C@@H](CO)O2)cc1I [Idoxuridine] (20 µM)	1.04
CO[C@H]1C[C@H](O[C@H]2[C@H](C)[C@@H](O[C@@H]3O[C@H](C)C[C@H](N(C)C)[C@H]3OC(C)=O)[C@@H](C)C[C@@]3(CO3)C(=O)[C@H](C)[C@@H](OC(C)=O)[C@@H](C)[C@@H](C)OC(=O)[C@@H]2C)O[C@@H](C)[C@@H]1OC(C)=O [Troleandomycin] (20 µM)	1.03
CN1CCN2c3ccccc3Cc3ccccc3C2C1 (stereo not given) [Mianserine hydrochloride] (20 µM)	0.995
OC[C@H]1O[C@@](CO)(OC[C@@]2(OC[C@@]3(O[C@H]4O[C@H](CO)[C@@H](O)[C@H](O)[C@H]4O)O[C@H](CO)[C@@H](O)[C@@H]3O)O[C@H](CO)[C@@H](O)[C@@H]2O)[C@@H](O)[C@@H]1O [Nystose] (50 µM)	1.02

Here is the next item to consider.
Problem: // query growth value for entry Clc1ccc(COC(Cn2ccnc2)c2ccc(Cl)cc2Cl)c(Cl)c1 (stereo not given) [Miconazole] (20 µM)
Result: 1.01
